- target-of-assay: Link_TSG6 (Homo sapiens)
- Construct: made in house
- measurement-notes: ITC of HA oligosaccharides binding to Link_TSG6
- condition-notes: Table 1; ITC, 25 °C, 5 mM MES pH 6.0; mean ± SEM
Attribute: −TΔS
Just the number please, in kcal/mol, no unit attached.

Observe how each entry below is paired with its result.
INPUT: Could you tell me which −TΔS is on file for CC(=O)N[C@H]1[C@H](O[C@H]2[C@H](O)[C@@H](O)[C@H](O[C@H]3[C@H](O)[C@@H](CO)O[C@@H](O[C@H]4[C@H](O)[C@@H](O)[C@H](O[C@H]5[C@H](O)[C@@H](CO)OC(O)[C@@H]5NC(C)=O)O[C@@H]4C(=O)O)[C@@H]3NC(C)=O)O[C@@H]2C(=O)O)O[C@H](CO)[C@@H](O)[C@@H]1O[C@@H]1O[C@H](C(=O)O)[C@@H](O)[C@H](O)[C@H]1O (some centres unmarked) [HA6^AN, reference compound] ?
OUTPUT: 0.162

INPUT: Entry under review: "CC(=O)N[C@H]1[C@H](O[C@H]2[C@H](O)[C@@H](O)[C@H](O[C@H]3[C@H](O)[C@@H](CO)O[C@@H](O[C@H]4[C@H](O)[C@@H](O)[C@H](O[C@H]5[C@H](O)[C@@H](CO)O[C@@H](O[C@H]6[C@H](O)[C@@H](O)[C@H](O[C@@H]([C@H](O)[C@H](O)CO)[C@H](CNc7ccccc7C(=O)O)NC(C)=O)O[C@@H]6C(=O)O)[C@@H]5NC(C)=O)O[C@@H]4C(=O)O)[C@@H]3NC(C)=O)O[C@@H]2C(=O)O)O[C@H](CO)[C@@H](O)[C@@H]1O[C@@H]1O[C@H](C(=O)O)[C@@H](O)[C@H](O)[C@H]1O" . Reported −TΔS?
OUTPUT: 4.69

INPUT: // −TΔS lookup, key: "CC(=O)N[C@H]1[C@H](O[C@H]2[C@H](O)[C@@H](O)[C@H](O[C@H]3[C@H](O)[C@@H](CO)O[C@@H](O[C@H]4[C@H](O)[C@@H](O)[C@H](O[C@H]5[C@H](O)[C@@H](CO)O[C@@H](O[C@H]6[C@H](O)[C@@H](O)[C@H](O[C@@H]([C@H](O)[C@H](O)CO)[C@H](CNc7cccc(C(=O)O)c7)NC(C)=O)O[C@@H]6C(=O)O)[C@@H]5NC(C)=O)O[C@@H]4C(=O)O)[C@@H]3NC(C)=O)O[C@@H]2C(=O)O)O[C@H](CO)[C@@H](O)[C@@H]1O[C@@H]1O[C@H](C(=O)O)[C@@H](O)[C@H](O)[C@H]1O"
OUTPUT: -0.60

INPUT: Field request: −TΔS | item: "CC(=O)N[C@H]1[C@H](O[C@H]2[C@H](O)[C@@H](O)[C@H](O[C@H]3[C@H](O)[C@@H](CO)O[C@@H](O[C@H]4[C@H](O)[C@@H](O)[C@H](O[C@@H]([C@H](O)[C@H](O)CO)[C@H](CNc5ccccc5C(=O)O)NC(C)=O)O[C@@H]4C(=O)O)[C@@H]3NC(C)=O)O[C@@H]2C(=O)O)O[C@H](CO)[C@@H](O)[C@@H]1O[C@@H]1O[C@H](C(=O)O)[C@@H](O)[C@H](O)[C@H]1O"
OUTPUT: -0.66

More entries:
INPUT: Look up −TΔS: "CC(=O)N[C@H]1[C@H](O[C@H]2[C@H](O)[C@@H](O)[C@H](O[C@H]3[C@H](O)[C@@H](CO)O[C@@H](O[C@H]4[C@H](O)[C@@H](O)[C@H](O[C@@H]([C@H](O)[C@H](O)CO)[C@H](CNc5cccc(C(=O)O)c5)NC(C)=O)O[C@@H]4C(=O)O)[C@@H]3NC(C)=O)O[C@@H]2C(=O)O)O[C@H](CO)[C@@H](O)[C@@H]1O[C@@H]1O[C@H](C(=O)O)[C@@H](O)[C@H](O)[C@H]1O"
OUTPUT: -2.21

====

- target-of-assay: Link_TSG6 (Homo sapiens)
- Construct: made in house
- measurement-notes: ITC of HA oligosaccharides binding to Link_TSG6
- condition-notes: Table 4; ITC, 25 °C, 5 mM MES pH 6.0; mean ± SEM
This section presents compounds with their documented ΔG values.
Numbers only here, please. The scale is kcal/mol.

INPUT: Endpoint output: ΔG of "CC(=O)N[C@H]1[C@H](O[C@H]2[C@H](O)[C@@H](O)[C@H](O[C@H]3[C@H](O)[C@@H](CO)O[C@@H](O[C@H]4[C@H](O)[C@@H](O)[C@H](O[C@H]5[C@H](O)[C@@H](CO)O[C@@H](O[C@H]6[C@H](O)[C@@H](O)[C@H](O[C@@H]([C@H](O)[C@H](O)CO)[C@H](CNc7ccc8c(c7)CCC8)NC(C)=O)O[C@@H]6C(=O)O)[C@@H]5NC(C)=O)O[C@@H]4C(=O)O)[C@@H]3NC(C)=O)O[C@@H]2C(=O)O)O[C@H](CO)[C@@H](O)[C@@H]1O[C@@H]1O[C@H](C(=O)O)[C@@H](O)[C@H](O)[C@H]1O" . Value?
OUTPUT: -9.34

Alright, here's another compound for you.
INPUT: Given the compound "COc1ccc(C(=O)O)c(NC[C@H](NC(C)=O)[C@@H](O[C@@H]2O[C@H](C(=O)O)[C@@H](O[C@@H]3O[C@H](CO)[C@@H](O)[C@H](O[C@@H]4O[C@H](C(=O)O)[C@@H](O[C@@H]5O[C@H](CO)[C@@H](O)[C@H](O[C@@H]6O[C@H](C(=O)O)[C@@H](O)[C@H](O)[C@H]6O)[C@H]5NC(C)=O)[C@H](O)[C@H]4O)[C@H]3NC(C)=O)[C@H](O)[C@H]2O)[C@H](O)[C@H](O)CO)c1" , what is its reported ΔG?
OUTPUT: -8.64

====

- target-of-assay: Link_TSG6 (Homo sapiens, UniProt P98066)
- Construct: made in house
- Sequence (P98066 36-129 limits assumed): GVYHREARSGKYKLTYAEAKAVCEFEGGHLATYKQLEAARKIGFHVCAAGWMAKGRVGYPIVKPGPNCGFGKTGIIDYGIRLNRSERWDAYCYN
- measurement-notes: ITC of HA oligosaccharides binding to Link_TSG6
- condition-notes: Table 6; relative to unmodified oligosaccharide of the same length, by ITC
- Description: ITC experiments were performed using a MicroCal PEAQ-ITC instrument (Malvern Instruments). Oligosaccharide stock solutions were prepared at 0.29 mM (in 5 mM MES, pH 6.0) and injected (18 × 2 μl with 120 s spacing between injections) into the cell containing ∼200 μl Link_TSG6 (0.029 mM) in matched buffer at 25 °C. […] Each oligosaccharide was analyzed in four independently performed ITC experiments.
Reported % Binding affinity Link_TSG6 is given for each of the following compounds.
Return type: number; implicit unit %.

INPUT: Field request: % Binding affinity Link_TSG6 | item: "COc1ccc(C(=O)O)c(NC[C@H](NC(C)=O)[C@@H](O[C@@H]2O[C@H](C(=O)O)[C@@H](O[C@@H]3O[C@H](CO)[C@@H](O)[C@H](O[C@@H]4O[C@H](C(=O)O)[C@@H](O[C@@H]5O[C@H](CO)[C@@H](O)[C@H](O[C@@H]6O[C@H](C(=O)O)[C@@H](O)[C@H](O)[C@H]6O)[C@H]5NC(C)=O)[C@H](O)[C@H]4O)[C@H]3NC(C)=O)[C@H](O)[C@H]2O)[C@H](O)[C@H](O)CO)c1"
OUTPUT: 238

// below: % Binding affinity Link_TSG6 requested for another compound
INPUT: Consider the compound shown here: "CC(=O)N[C@H]1[C@H](O[C@H]2[C@H](O)[C@@H](O)[C@H](O[C@H]3[C@H](O)[C@@H](CO)O[C@@H](O[C@H]4[C@H](O)[C@@H](O)[C@H](O[C@H]5[C@H](O)[C@@H](CO)O[C@@H](O[C@H]6[C@H](O)[C@@H](O)[C@H](O[C@@H]([C@H](O)[C@H](O)CO)[C@H](CNc7cc[nH]n7)NC(C)=O)O[C@@H]6C(=O)O)[C@@H]5NC(C)=O)O[C@@H]4C(=O)O)[C@@H]3NC(C)=O)O[C@@H]2C(=O)O)O[C@H](CO)[C@@H](O)[C@@H]1O[C@@H]1O[C@H](C(=O)O)[C@@H](O)[C@H](O)[C@H]1O" What is its recorded % Binding affinity Link_TSG6?
OUTPUT: 115

====

- target-of-assay: Link_TSG6 (Homo sapiens, UniProt P98066)
- Construct: made in house
- measurement-notes: ITC of HA oligosaccharides binding to Link_TSG6
- condition-notes: Table 1; ITC, 25 °C, 5 mM MES pH 6.0; mean ± SEM
reported-property: ΔH

INPUT: Return reported ΔH; argument: CC(=O)N[C@H]1[C@H](O[C@H]2[C@H](O)[C@@H](O)[C@H](O[C@H]3[C@H](O)[C@@H](CO)O[C@@H](O[C@H]4[C@H](O)[C@@H](O)[C@H](O[C@H]5[C@H](O)[C@@H](CO)O[C@@H](O[C@H]6[C@H](O)[C@@H](O)[C@H](O[C@H]7[C@H](O)[C@@H](CO)OC(O)[C@@H]7NC(C)=O)O[C@@H]6C(=O)O)[C@@H]5NC(C)=O)O[C@@H]4C(=O)O)[C@@H]3NC(C)=O)O[C@@H]2C(=O)O)O[C@H](CO)[C@@H](O)[C@@H]1O[C@@H]1O[C@H](C(=O)O)[C@@H](O)[C@H](O)[C@H]1O (stereo partly shown) [HA8^AN, reference compound]
OUTPUT: -7.26 ± 0.20 kcal/mol
